Answer each item with its documented Hepatotoxicity (cytolytic).
- PARTICULARS: human;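 further: human cytolytic liver injury, shown by histopathology or by a ratio above 5 of peak ALT or AST elevation to alkaline phosphatase elevation, value counts indexed references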
Answer with a bare number; do not write a unit.

Qu. Dear colleague, please send me the reported Hepatotoxicity (cytolytic) for "CC1(C)S[C@@H]2[C@H](NC(=O)Cc3ccccc3)C(=O)N2[C@H]1C(=O)O" when you can.
Ans. 5

Qu. Dear colleague, please send me the reported Hepatotoxicity (cytolytic) for Cc1cc(C)cc(OCC2CNC(=O)O2)c1 (configuration not stated) when you can.
Ans. 0

Qu. Dear colleague, please send me the reported Hepatotoxicity (cytolytic) for NC(=O)NC(=O)Cc1ccccc1 [PHENACEMIDE] when you can.
Ans. 8

Qu. Dear colleague, please send me the reported Hepatotoxicity (cytolytic) for NCCNC(=O)c1ccc(Cl)cn1 [LAZABEMIDE] when you can.
Ans. 0

Qu. Dear colleague, please send me the reported Hepatotoxicity (cytolytic) for "CNNCc1ccc(C(=O)NC(C)C)cc1" when you can.
Ans. 2

Qu. Dear colleague, please send me the reported Hepatotoxicity (cytolytic) for CC(Cc1ccccc1)(NC(=O)CN)c1ccccc1 (configuration not stated) [REMACEMIDE] when you can.
Ans. 0

Qu. Dear colleague, please send me the reported Hepatotoxicity (cytolytic) for "CCOC(=O)NNc1nncc2ccccc12" when you can.
Ans. 3

Qu. Dear colleague, please send me the reported Hepatotoxicity (cytolytic) for "O=NN(CCCl)C(=O)NCCCl" when you can.
Ans. 3

Qu. Dear colleague, please send me the reported Hepatotoxicity (cytolytic) for NS(=O)(=O)c1cc2c(cc1Cl)NC(C(Cl)Cl)NS2(=O)=O (configuration not stated) [TRICHLORMETHIAZIDE] when you can.
Ans. 0

Qu. Dear colleague, please send me the reported Hepatotoxicity (cytolytic) for CO/N=C1\CN(c2nc3c(cc2F)c(=O)c(C(=O)O)cn3C2CC2)CC1CN (configuration not stated) when you can.
Ans. 0

Qu. Dear colleague, please send me the reported Hepatotoxicity (cytolytic) for "COc1ccc2c(c1)N(C[C@H](C)CN(C)C)c1ccccc1S2" when you can.
Ans. 1

Qu. Dear colleague, please send me the reported Hepatotoxicity (cytolytic) for "NNC(=O)c1ccncc1" when you can.
Ans. 61

Values were extracted from ChEMBL document CHEMBL3137667.
